Catalogue of Population Tubulin-Different-Phenotype (%) values
System: U2OS
methodSummary: Multiplex assay against U2OS
Assay type: toxicity, cell-based
experimentalContext: human, 12 h, 10 µM, compound concentration 10 uM, replicate 1
Could you give me the number in %? Just the number is fine.

As a guide, the following entries are already answered.
CNc1oc(-c2cccc3ccccc23)nc1C#N : 15
CN(C)C/C=C/C(=O)Nc1cc2c(Nc3ccc(F)c(Cl)c3)ncnc2cc1O[C@H]1CCOC1.O=C(O)/C=C\C(=O)O.O=C(O)/C=C\C(=O)O [AFATINIB DIMALEATE] : 89
CNC(=O)c1cc(Oc2ccc(NC(=O)Nc3cc(C(C)(C)C)nn3-c3ccc4ncccc4c3)c(F)c2)ccn1 : 96

# input for lookup
With U2OS as the test system, `N#Cc1cnc(Nc2cc(NC[C@H]3CNCCO3)c(C(F)(F)F)cn2)cn1` showed Population Tubulin-Different-Phenotype (%) of 15
